Test: HoxA9-arrested leukemia cell differentiation promoters – flow cytometry, MLPCN library, primary screen (AID 624256);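 as to GFP+ MAC1+ double positive: cells exposed to compound for four days before flow analysis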
Conditions: ER-HoxA9 myeloid progenitors, lysozyme-GFP differentiation, at 10 µM; measured here: differentiation confirmed by MAC1 staining, stronger effect = higher value
The campaign covered roughly 360,000 compounds. About 3,700 (1%) were called active. Roughly 2% stayed inconclusive and do not appear here. The full list was thinned out, with actives kept by preference.
property_measured: GFP+ MAC1+ double positive (%)

>>> endpoint_value("Cc1ccc(CSCC2Nc3ccc(C(=O)N4CCN(c5ccc(F)cc5)CC4)cc3NC2=O)cc1 (stereo not given)")
1.7
>>> endpoint_value("O=C(CCC(=O)Nc1ccccc1)N/N=C/c1ccccc1F")
0.1
>>> endpoint_value("Cc1sc2ccccc2c1CNC[C@H]1O[C@@H](n2ccc(=O)[nH]c2=O)[C@H](O)[C@@H]1O")
1.3
>>> endpoint_value("CCOC(=O)C1=C(CN2CCc3ccccc32)NC(=O)NC1c1ccc(Cl)cc1 (stereo not given)")
3.7
>>> endpoint_value("C=CCn1c(SCc2cccc(F)c2)nc2cc(C(=O)N3CCC(C(N)=O)CC3)ccc2c1=O")
0.5
>>> endpoint_value("CC(=O)c1c(C)[nH]c(C(=O)NCc2ccc(C)cc2)c1C")
1.3
>>> endpoint_value("COC(=O)[C@]12CCCCC=C1N(CCC1=CCCCC1)C(=O)[C@H](CC(=O)NCC1CCCCC1)C2")
1.7
>>> endpoint_value("CC(=O)c1c(C)[nH]c(C(=O)NCCCN2CCCC2)c1C")
0.6
>>> endpoint_value("CCOC(=O)C1=C(CN2CCc3ccccc32)NC(=O)NC1c1cccc([N+](=O)[O-])c1 (stereo not given)")
1.5
>>> endpoint_value("CCOC(=O)C1=C(CN2CCc3ccccc32)NC(=O)NC1c1cc(C)ccc1C (stereo not given)")
0.5

---

Assay: HoxA9-arrested leukemia cell differentiation promoters – flow cytometry, MLPCN library, primary screen (AID 624256);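 as to GFP+ MAC1+ double positive: cells exposed to compound for four days before flow analysis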
Conditions: ER-HoxA9 myeloid progenitors, lysozyme-GFP differentiation, at 10 µM; measured here: differentiation confirmed by MAC1 staining, stronger effect = higher value
Hit rate of the full screen: of about 360,000 compounds, about 3,700 (1%) were called active. Another 2% or so got no clear call; they are omitted. The list comes from a sample in which actives are over-represented; it also holds close analogues and randomly drawn compounds.
property_measured: GFP+ MAC1+ double positive (%)

>>> endpoint_value("Cc1ccccc1Nc1c([N+](=O)[O-])ccc2nonc12")
0.6
>>> endpoint_value("O=C(Nc1ccc2c(c1)OCCO2)C1c2ccccc2OCC(=O)N1Cc1ccccn1 (stereo not given)")
1.3
>>> endpoint_value("N#Cc1ccc(-c2nc3c(Cl)cc(C(F)(F)F)cn3c2Cc2ccccc2C(F)(F)F)cc1")
1.3
>>> endpoint_value("COc1ccc(Sc2ccc(NC(=O)c3cccc(Cl)c3)cc2C#N)cc1")
1.1
>>> endpoint_value("CCOC(=O)[C@]12CCCC=C1N(CCC1=CCCCC1)C(=O)[C@H](CC(=O)NCCCOC)C2")
2.8

---

Assay: HoxA9-arrested leukemia cell differentiation promoters – flow cytometry, MLPCN library, primary screen (AID 624256)
Conditions: ER-HoxA9 myeloid progenitors, lysozyme-GFP differentiation, at 10 µM
Among all 360,000 compounds or so, about 3,700 (1%) were called active. Inconclusive results (about 2%) are left out.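 The calls were made as follows: active = normalized GFP-positive differentiation at or above the plate's own cutoff, the solvent-only control mean plus 3 SD; inconclusive = no clear call, values can overlap the other calls; inactive = the rest.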 The sample as a whole holds a higher share of actives than the screen did.
Outcomes: y for active, n for inactive

>>> classification("CCN(C(=O)COC(=O)c1ccccc1O)c1cccc2ccccc12")
"y"
>>> classification("Cc1ccc2[nH]c(=O)c(-c3nc4c(C)cccn4c3NCc3ccco3)cc2c1")
"n"
>>> classification("COC(=O)[C@]12CCCCC=C1N(Cc1ccc(Cl)cc1Cl)C(=O)[C@H](CC(=O)NCc1cccc3ccccc13)C2")
"n"
>>> classification("Cc1cccc(C)c1NC(=O)C(c1cccc2ccccc12)n1c(=O)c(-c2ccco2)nc2ccccc21 (stereo not given)")
"n"
>>> classification("Cc1cccn2c(=O)c(C=O)c(Nc3ccc(S(N)(=O)=O)cc3)nc12")
"n"
>>> classification("Nc1ccc(C(=O)Nc2ccccc2N)cc1")
"y"
>>> classification("CC1=C(C(=O)N(C(C)C)C(C)C)CC(CC(=O)NCCCCc2ccccc2)C(=O)N1CCC1=CCCCC1 (stereo not given)")
"n"
>>> classification("Nc1ccc(S(=O)(=O)NC(=O)c2ccccc2)cc1")
"n"
>>> classification("CNc1nc2c(C)cccn2c(=O)c1C=Nc1ccc(OC)cc1")
"n"
>>> classification("O=S1(=O)CC(N2CCC(Cc3ccccc3)CC2)CN1Cc1ccccc1 (stereo not given)")
"n"
